From: PubChem BioAssay (Tox21)

# Protocol details: A CellTox Green Cytotoxicity Assay to monitor cytotoxicity in HepG2 cells - 40 hour (AID 1224879); also: nearly all actives have a fitted effect of over 40% in size
# Particulars: CellTox Green fluorescence; series mostly up to 76.8 µM
# From the text: National Center for Advancing Translational Sciences [NCATS] NIH Chemical Genomics Center [NCGC] U.S. Environmental Protection Agency [EPA] National Institutes of Environmental Health Sciences [NIEHS] National Toxicology Program [NTP] Cell-based models are critical for drug discovery. […] Viable cells produce no appreciable increases in fluorescence. Therefore, the fluorescence signal produced by the binding interaction with dead cell DNA is proportional to cytotoxicity. […]
Results filed as inconclusive are left out. Calls of active or inactive are those of the source. Calls follow the shape of the dose curve; as a rule, active = well fitted activation curve with a large enough effect in the repeat runs; inconclusive = weak or mixed curves; inactive = flat fitted curve, though single readings scatter.
Parameter measured: outcome

Molecule	Parameter measured	Result
Nc1ncn[nH]1	outcome	inactive
CNC(=O)Oc1cccc2c1OC(C)(C)C2	outcome	inactive
CC1(C)C(C(=O)OC(C#N)c2cccc(Oc3ccccc3)c2)C1(C)C (configuration not stated)	outcome	inactive
N#Cc1cccnc1	outcome	inactive
C[N+](C)(C)CC(=O)[O-]	outcome	inactive

Q) Please report the recorded outcome for CCC1(c2ccc(N)cc2)CCC(=O)NC1=O (configuration not stated) .
A) inactive

Q) Please report the recorded outcome for CN(C)c1nc(=O)n(C2CCCCC2)c(=O)n1C .
A) inactive

Q) Please report the recorded outcome for CCNc1nc(Cl)nc(NC(C)(C)C#N)n1 .
A) inactive

Q) Please report the recorded outcome for COP(=S)(OC)SCn1nnc2ccccc2c1=O .
A) inactive

Q) Please report the recorded outcome for C=C(C)C#N .
A) inactive

Q) Please report the recorded outcome for CC(C)CON=O .
A) inactive

Q) Please report the recorded outcome for Oc1ccc(Cl)cc1Cl .
A) inactive

Q) Please report the recorded outcome for CC(C)=CC1C(C(=O)OCN2C(=O)C3=C(CCCC3)C2=O)C1(C)C (configuration not stated) .
A) inactive

Q) Please report the recorded outcome for CCC(=O)Nc1ccc(Cl)c(Cl)c1 .
A) inactive

Q) Please report the recorded outcome for [CH3][Sn]([Cl])([Cl])[Cl] .
A) inactive

Q) Please report the recorded outcome for NN=C(N)N .
A) inactive

Q) Please report the recorded outcome for CSc1nc(NC(C)C)nc(NC(C)C)n1 .
A) inactive

Q) Please report the recorded outcome for NC(=O)CN1CCCC1=O .
A) inactive

Q) Please report the recorded outcome for CCOS(=O)(=O)OCC .
A) inactive

Q) Please report the recorded outcome for O=NN(c1ccccc1)c1ccccc1 .
A) inactive

Q) Please report the recorded outcome for c1ccc2c(c1)Nc1ccccc1S2 .
A) inactive

Q) Please report the recorded outcome for C[N+](C)(C)C .
A) inactive
